The values you see were collected from paper PMC8745330.

TESTED ON: hCA IV (Homo sapiens, UniProt P22748)
Sequence (P22748 19-312): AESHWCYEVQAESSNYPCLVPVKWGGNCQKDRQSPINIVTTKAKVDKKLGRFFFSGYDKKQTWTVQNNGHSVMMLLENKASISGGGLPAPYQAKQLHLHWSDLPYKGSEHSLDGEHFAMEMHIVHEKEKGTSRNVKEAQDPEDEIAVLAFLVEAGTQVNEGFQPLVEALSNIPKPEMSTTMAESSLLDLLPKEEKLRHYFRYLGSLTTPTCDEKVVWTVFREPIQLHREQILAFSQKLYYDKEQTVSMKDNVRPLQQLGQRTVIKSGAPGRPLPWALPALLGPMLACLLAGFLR
READOUT: Ki (nM)
Return type: number; implicit unit nM.

Here are 3 compounds together with their reported answers.
[[record]]
compound = "NS(=O)(=O)c1ccc(-c2cn(CCCS(=O)(=O)[O-])nn2)cc1.[Na+] [Compound 30]"
readout = "Ki"
observed_value = 429

[[record]]
compound = "CC(=O)Nc1cc(S(N)(=O)=O)ccc1OCc1cn(CCCCS(=O)(=O)O)nn1 [Compound 50]"
readout = "Ki"
observed_value = 3560

[[record]]
compound = "NS(=O)(=O)c1ccc(C(=O)NCc2cn(CCCS(=O)(=O)[O-])nn2)cc1.[Na+] [Compound 33]"
readout = "Ki"
observed_value = 56.3


-- ask API: value(readout= Ki, system= hCA IV (Homo sapiens, UniProt P22748), query= NS(=O)(=O)c1ccc(OCc2cn(CCCS(=O)(=O)[O-])nn2)cc1.[Na+] [Compound 31] )
-- reply 38.3

-- ask API: value(readout= Ki, system= hCA IV (Homo sapiens, UniProt P22748), query= NS(=O)(=O)c1ccc(NC(=S)NCc2cn(CCCS(=O)(=O)[O-])nn2)cc1.[Na+] [Compound 37] )
-- reply 78.1
